target.desc: MST1R (human)
protocol.summary: KINOMEscan competition binding
test.conditions: compound 10.0 µM
assay.readout: kinase still bound, per cent of control
Units required after the number.

Observe how each entry below is paired with its result.
compound=O=C1NC(=O)/C(=C/c2ccc3nccc(-c4ccncc4)c3c2)S1 readout_value=100%
compound=O=C(Nc1cccc(Nc2ncc(Br)c(NCCc3cnc[nH]3)n2)c1)N1CCCC1 readout_value=70%
compound=COc1cc(N2CCN(C)CC2)ccc1Nc1ncc2c(n1)N(C)c1ccccc1C(=O)N2C readout_value=100%

Hi there! I need kinase still bound, per cent of control for each item below, if you can.
1. COc1cc(C(=O)N2CCC(N3CCN(C)CC3)CC2)ccc1Nc1ncc2c(n1)N(C)c1ccccc1C(=O)N2C
2. Cc1n[nH]c2ccc(-c3cncc(OC[C@@H](N)Cc4c[nH]c5ccccc45)c3)cc12

Response:
1. 98%
2. 100%

====

target.desc: CAMK2D (human) (UniProt Q13557)
Sequence (Q13557 whole entry, looked up): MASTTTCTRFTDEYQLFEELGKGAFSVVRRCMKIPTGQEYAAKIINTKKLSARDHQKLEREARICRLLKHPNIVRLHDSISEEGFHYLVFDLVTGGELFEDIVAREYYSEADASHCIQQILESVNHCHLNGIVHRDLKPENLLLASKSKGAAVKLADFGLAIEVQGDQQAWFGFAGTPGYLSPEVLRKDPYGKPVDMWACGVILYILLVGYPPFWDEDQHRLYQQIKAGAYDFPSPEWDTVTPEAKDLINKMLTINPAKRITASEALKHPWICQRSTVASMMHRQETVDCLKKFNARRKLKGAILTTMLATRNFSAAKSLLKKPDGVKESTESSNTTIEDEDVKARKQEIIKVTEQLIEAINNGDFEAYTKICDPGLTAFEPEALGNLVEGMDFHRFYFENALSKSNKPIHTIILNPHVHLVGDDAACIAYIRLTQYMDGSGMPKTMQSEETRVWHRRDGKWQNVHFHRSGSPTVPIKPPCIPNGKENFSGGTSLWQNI
protocol.summary: KINOMEscan competition binding
test.conditions: compound 10.0 µM
Give measured kinase still bound, per cent of control for each item. Keep answers brief.
One number for each entry, in %.

Example entries begin here.
compound=C=CC(=O)Nc1cc(-n2c(=O)ccc3cnc4ccc(-c5cn[nH]c5)cc4c32)ccc1C target_desc="CAMK2D (human) (UniProt Q13557)" assay_readout="kinase still bound, per cent of control" readout_value=36
compound=C[C@@H](Oc1cc(-c2cnn(C3CCNCC3)c2)cnc1N)c1c(Cl)ccc(F)c1Cl target_desc="CAMK2D (human) (UniProt Q13557)" assay_readout="kinase still bound, per cent of control" readout_value=100
compound=COc1cc2ncnc(-n3nc(-c4ccccn4)nc3N)c2cc1OC target_desc="CAMK2D (human) (UniProt Q13557)" assay_readout="kinase still bound, per cent of control" readout_value=55
compound=CCN1CCN(C(=O)Cc2ccc(Nc3ncc(F)c(Nc4ccc(C(=O)Nc5ccccc5Cl)cc4)n3)cc2)CC1 target_desc="CAMK2D (human) (UniProt Q13557)" assay_readout="kinase still bound, per cent of control" readout_value=71
compound=COCC(=O)NC/C=C/c1ccc2ncnc(Nc3ccc(Oc4ccc(C)nc4)c(C)c3)c2c1 target_desc="CAMK2D (human) (UniProt Q13557)" assay_readout="kinase still bound, per cent of control" readout_value=100
compound=O=C1NC(=O)/C(=C/c2ccc3nccc(-c4ccncc4)c3c2)S1 target_desc="CAMK2D (human) (UniProt Q13557)" assay_readout="kinase still bound, per cent of control" readout_value=10
compound=CCN(CC)CCCCNc1ncc2cc(-c3cc(OC)cc(OC)c3)c(NC(=O)NC(C)(C)C)nc2n1 target_desc="CAMK2D (human) (UniProt Q13557)" assay_readout="kinase still bound, per cent of control" readout_value=100
compound=CNC(=O)c1cc(Oc2ccc(NC(=O)Nc3ccc(Cl)c(C(F)(F)F)c3)cc2)ccn1 target_desc="CAMK2D (human) (UniProt Q13557)" assay_readout="kinase still bound, per cent of control" readout_value=95

Lab book: kinase still bound, per cent of control of CN(C)C/C=C/C(=O)Nc1ccc(C(=O)Nc2cccc(Nc3nccc(-c4cccnc4)n3)c2)cc1 noted as 67

====

target.desc: HIPK3 (human)
protocol.summary: KINOMEscan competition binding
test.conditions: compound 10.0 µM
Consider the following compounds; for each one, report its kinase still bound, per cent of control.

compound=CCN1CCN(C(=O)Cc2ccc(Nc3ncc(F)c(Nc4ccc(C(=O)Nc5ccccc5Cl)cc4)n3)cc2)CC1 target_desc="HIPK3 (human)" readout_value=12%
compound=COc1cc2ncn(-c3cc(OCc4ccccc4C(F)(F)F)c(C(N)=O)s3)c2cc1OC target_desc="HIPK3 (human)" readout_value=77%
compound=NC(=O)Nc1cc(-c2cccc(F)c2)sc1C(=O)N[C@@H]1CCCNC1 target_desc="HIPK3 (human)" readout_value=12%
compound=C[C@@H](Oc1cc(-c2cnn(C3CCNCC3)c2)cnc1N)c1c(Cl)ccc(F)c1Cl target_desc="HIPK3 (human)" readout_value=92%
compound=CCN(CC)CCCCNc1ncc2c(n1)N(C)C(=O)N(c1c(Cl)c(OC)cc(OC)c1Cl)C2 target_desc="HIPK3 (human)" readout_value=100%

Kindly give each listed record's kinase still bound, per cent of control.
1. COCC(=O)NC/C=C/c1ccc2ncnc(Nc3ccc(Oc4ccc(C)nc4)c(C)c3)c2c1
2. CN(C)C/C=C/C(=O)Nc1ccc(C(=O)Nc2cccc(Nc3nccc(-c4cccnc4)n3)c2)cc1

Response:
1: 100%; 2: 4.2%

====

target.desc: BMPR2 (human) (UniProt Q13873)
Sequence (Q13873 whole entry, looked up): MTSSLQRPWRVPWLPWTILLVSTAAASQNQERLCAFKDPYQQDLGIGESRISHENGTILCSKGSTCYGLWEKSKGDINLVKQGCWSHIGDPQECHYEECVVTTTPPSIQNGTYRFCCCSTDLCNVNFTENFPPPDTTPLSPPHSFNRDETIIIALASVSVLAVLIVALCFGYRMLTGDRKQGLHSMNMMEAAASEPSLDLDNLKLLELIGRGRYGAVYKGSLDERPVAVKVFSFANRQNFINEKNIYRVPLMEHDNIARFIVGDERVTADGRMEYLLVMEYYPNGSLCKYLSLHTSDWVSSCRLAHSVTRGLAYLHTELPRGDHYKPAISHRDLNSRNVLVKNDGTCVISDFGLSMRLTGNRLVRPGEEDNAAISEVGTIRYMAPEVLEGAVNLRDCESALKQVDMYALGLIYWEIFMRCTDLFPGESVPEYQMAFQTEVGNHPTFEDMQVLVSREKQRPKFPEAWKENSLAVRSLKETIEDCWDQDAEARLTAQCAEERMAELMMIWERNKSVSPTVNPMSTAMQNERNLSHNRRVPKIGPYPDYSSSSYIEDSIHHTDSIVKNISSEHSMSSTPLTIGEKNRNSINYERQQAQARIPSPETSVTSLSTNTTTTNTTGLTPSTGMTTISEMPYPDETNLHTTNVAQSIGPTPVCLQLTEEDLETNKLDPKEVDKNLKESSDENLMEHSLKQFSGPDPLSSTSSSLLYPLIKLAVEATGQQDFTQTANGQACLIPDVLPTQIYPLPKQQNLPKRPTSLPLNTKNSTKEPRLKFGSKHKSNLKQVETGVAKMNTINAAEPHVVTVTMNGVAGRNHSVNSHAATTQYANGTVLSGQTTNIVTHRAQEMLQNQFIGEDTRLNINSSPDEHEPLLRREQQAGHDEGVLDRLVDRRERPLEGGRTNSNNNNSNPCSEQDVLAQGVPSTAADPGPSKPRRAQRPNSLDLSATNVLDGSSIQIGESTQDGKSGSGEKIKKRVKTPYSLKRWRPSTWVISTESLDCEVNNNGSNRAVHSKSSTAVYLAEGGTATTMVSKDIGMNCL
protocol.summary: KINOMEscan competition binding
test.conditions: compound 10.0 µM
assay.readout: kinase still bound, per cent of control (%)
One number for each entry, in %.

Guide cases for kinase still bound, per cent of control, answers given:
compound=CNC(=O)c1cc(Oc2ccc(NC(=O)Nc3ccc(Cl)c(C(F)(F)F)c3)cc2)ccn1 readout_value=78
compound=COc1cc2ncnc(-n3nc(-c4ccccn4)nc3N)c2cc1OC readout_value=88
compound=CNC(=O)c1ccc(Nc2cc(Nc3ccccc3S(=O)(=O)C(C)C)c3cc[nH]c3n2)nc1 readout_value=7.9
compound=COc1ccc(N(C(=O)Oc2c(C)cccc2C)c2ccnc(Nc3ccc(N4CCN(C)CC4)cc3)n2)c(OC)c1 readout_value=0.2
compound=COCC(=O)NC/C=C/c1ccc2ncnc(Nc3ccc(Oc4ccc(C)nc4)c(C)c3)c2c1 readout_value=73
compound=C=CC(=O)Nc1cc(-n2c(=O)ccc3cnc4ccc(-c5cn[nH]c5)cc4c32)ccc1C readout_value=4.6
compound=C=CC(=O)Nc1ccc(CN(C(=O)Nc2c(Cl)c(OC)cc(OC)c2Cl)c2cc(Nc3ccc(N4CCN(C)CC4)cc3)ncn2)cc1 readout_value=8.9
compound=CN(C)C/C=C/C(=O)Nc1ccc(C(=O)Nc2cccc(Nc3nccc(-c4cccnc4)n3)c2)cc1 readout_value=100

Please go through the list and note kinase still bound, per cent of control for each molecule.
1. Cc1n[nH]c2ccc(-c3cncc(OC[C@@H](N)Cc4c[nH]c5ccccc45)c3)cc12
2. O=c1cc(N2CCOCC2)oc2c(-c3cccc4c3sc3ccccc34)cccc12
3. CCN1CCN(C(=O)Cc2ccc(Nc3ncc(F)c(Nc4ccc(C(=O)Nc5ccccc5Cl)cc4)n3)cc2)CC1
4. CS(=O)(=O)N1CCN(Cc2cc3nc(-c4cccc5[nH]ncc45)nc(N4CCOCC4)c3s2)CC1
5. COc1cc(N2CCN(C)CC2)ccc1Nc1ncc2c(n1)N(C)c1ccccc1C(=O)N2C
6. COc1cc2ncn(-c3cc(OCc4ccccc4C(F)(F)F)c(C(N)=O)s3)c2cc1OC
7. COc1cc(C(=O)N2CCC(N3CCN(C)CC3)CC2)ccc1Nc1ncc2c(n1)N(C)c1ccccc1C(=O)N2C

Response:
100
83
25
100
100
69
87

Dear colleague, could you please provide kinase still bound, per cent of control for the molecules listed below?
1. O=C(Nc1cccc(Nc2ncc(Br)c(NCCc3cnc[nH]3)n2)c1)N1CCCC1
2. O=C1NC(=O)/C(=C/c2ccc3nccc(-c4ccncc4)c3c2)S1
3. N#CCNC(=O)c1ccc(-c2ccnc(Nc3ccc(N4CCOCC4)cc3)n2)cc1

Response:
[13, 100, 100]

Answer for every listed entry: what is its kinase still bound, per cent of control? The entries follow.
1. NC(=O)Nc1cc(-c2cccc(F)c2)sc1C(=O)N[C@@H]1CCCNC1
2. C[C@@H](Oc1cc(-c2cnn(C3CCNCC3)c2)cnc1N)c1c(Cl)ccc(F)c1Cl
3. CCN(CC)CCCCNc1ncc2c(n1)N(C)C(=O)N(c1c(Cl)c(OC)cc(OC)c1Cl)C2
4. CCN(CC)CCCCNc1ncc2cc(-c3cc(OC)cc(OC)c3)c(NC(=O)NC(C)(C)C)nc2n1

Response:
3.4
28
100
100

====

target.desc: TRPM6 (human) (UniProt Q9BX84)
Sequence (Q9BX84 whole entry, looked up): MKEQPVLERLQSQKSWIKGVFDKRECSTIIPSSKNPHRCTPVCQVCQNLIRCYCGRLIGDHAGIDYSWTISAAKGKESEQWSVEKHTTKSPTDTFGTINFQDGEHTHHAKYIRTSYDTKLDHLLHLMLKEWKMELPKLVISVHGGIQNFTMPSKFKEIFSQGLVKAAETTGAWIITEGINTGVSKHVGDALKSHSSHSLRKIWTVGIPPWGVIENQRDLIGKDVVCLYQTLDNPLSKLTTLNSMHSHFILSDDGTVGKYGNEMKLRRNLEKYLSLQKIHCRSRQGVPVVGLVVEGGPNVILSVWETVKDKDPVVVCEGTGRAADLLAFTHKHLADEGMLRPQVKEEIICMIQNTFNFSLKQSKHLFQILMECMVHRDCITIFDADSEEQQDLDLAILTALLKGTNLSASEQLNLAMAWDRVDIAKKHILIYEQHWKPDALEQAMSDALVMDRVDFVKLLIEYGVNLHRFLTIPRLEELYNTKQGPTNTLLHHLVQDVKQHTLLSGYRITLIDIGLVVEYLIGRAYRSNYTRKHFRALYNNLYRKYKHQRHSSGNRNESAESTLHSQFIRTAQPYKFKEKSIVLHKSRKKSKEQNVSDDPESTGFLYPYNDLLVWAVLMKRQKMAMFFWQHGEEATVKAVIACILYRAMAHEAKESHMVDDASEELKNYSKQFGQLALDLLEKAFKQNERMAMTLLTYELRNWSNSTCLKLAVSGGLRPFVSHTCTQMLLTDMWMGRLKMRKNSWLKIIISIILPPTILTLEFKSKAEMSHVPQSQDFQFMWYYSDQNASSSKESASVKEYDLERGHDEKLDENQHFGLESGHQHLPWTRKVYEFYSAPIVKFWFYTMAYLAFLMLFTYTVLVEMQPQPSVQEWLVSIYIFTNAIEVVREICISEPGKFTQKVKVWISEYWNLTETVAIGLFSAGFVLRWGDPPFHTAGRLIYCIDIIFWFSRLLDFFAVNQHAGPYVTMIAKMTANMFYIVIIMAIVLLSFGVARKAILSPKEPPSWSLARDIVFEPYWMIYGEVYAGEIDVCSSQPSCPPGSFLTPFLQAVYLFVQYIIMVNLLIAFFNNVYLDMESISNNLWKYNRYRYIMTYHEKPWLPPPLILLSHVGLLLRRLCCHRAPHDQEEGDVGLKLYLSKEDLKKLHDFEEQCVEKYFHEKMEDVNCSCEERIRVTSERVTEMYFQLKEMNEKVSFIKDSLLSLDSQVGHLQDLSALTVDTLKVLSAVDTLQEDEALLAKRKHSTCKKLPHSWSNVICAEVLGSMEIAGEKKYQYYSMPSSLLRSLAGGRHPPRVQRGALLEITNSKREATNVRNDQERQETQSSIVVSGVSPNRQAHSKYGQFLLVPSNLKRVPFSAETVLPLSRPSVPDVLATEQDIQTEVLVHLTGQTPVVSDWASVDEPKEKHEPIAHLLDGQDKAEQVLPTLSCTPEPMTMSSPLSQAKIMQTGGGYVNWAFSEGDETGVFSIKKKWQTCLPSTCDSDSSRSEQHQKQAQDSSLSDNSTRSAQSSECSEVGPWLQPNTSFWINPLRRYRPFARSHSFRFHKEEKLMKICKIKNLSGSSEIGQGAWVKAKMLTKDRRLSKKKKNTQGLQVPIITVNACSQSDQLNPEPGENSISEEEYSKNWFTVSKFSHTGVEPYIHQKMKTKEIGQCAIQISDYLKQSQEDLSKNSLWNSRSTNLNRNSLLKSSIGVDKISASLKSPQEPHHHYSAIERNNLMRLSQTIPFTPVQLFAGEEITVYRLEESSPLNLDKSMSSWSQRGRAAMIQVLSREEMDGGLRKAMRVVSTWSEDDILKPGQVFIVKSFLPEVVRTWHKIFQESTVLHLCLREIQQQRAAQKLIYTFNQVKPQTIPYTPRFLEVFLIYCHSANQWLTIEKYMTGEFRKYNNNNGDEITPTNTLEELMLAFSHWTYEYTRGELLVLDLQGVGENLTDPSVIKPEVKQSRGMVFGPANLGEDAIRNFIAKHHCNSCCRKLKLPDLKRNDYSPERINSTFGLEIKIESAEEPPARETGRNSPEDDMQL
protocol.summary: KINOMEscan competition binding
test.conditions: compound 10.0 µM
assay.readout: kinase still bound, per cent of control (%)
Answers are plain numbers, in %.

// known answers, use as guide
compound=O=c1cc(N2CCOCC2)oc2c(-c3cccc4c3sc3ccccc34)cccc12 assay_readout="kinase still bound, per cent of control" readout_value=100
compound=O=C1NC(=O)/C(=C/c2ccc3nccc(-c4ccncc4)c3c2)S1 assay_readout="kinase still bound, per cent of control" readout_value=97
compound=NC(=O)Nc1cc(-c2cccc(F)c2)sc1C(=O)N[C@@H]1CCCNC1 assay_readout="kinase still bound, per cent of control" readout_value=74
compound=CNC(=O)c1cc(Oc2ccc(NC(=O)Nc3ccc(Cl)c(C(F)(F)F)c3)cc2)ccn1 assay_readout="kinase still bound, per cent of control" readout_value=100

Kindly review the next compound as well.
According to the records, this compound C[C@@H](Oc1cc(-c2cnn(C3CCNCC3)c2)cnc1N)c1c(Cl)ccc(F)c1Cl displays kinase still bound, per cent of control of 79

====

target.desc: MAPK14 (human)
protocol.summary: KINOMEscan competition binding
test.conditions: compound 10.0 µM
assay.readout: kinase still bound, per cent of control (%)
Numbers only, in %.

Guide cases for kinase still bound, per cent of control, answers given:
compound=CNC(=O)c1ccc(Nc2cc(Nc3ccccc3S(=O)(=O)C(C)C)c3cc[nH]c3n2)nc1 assay_readout="kinase still bound, per cent of control" units_symbol=% readout_value=100
compound=COc1cc2ncnc(-n3nc(-c4ccccn4)nc3N)c2cc1OC assay_readout="kinase still bound, per cent of control" units_symbol=% readout_value=50

List reported kinase still bound, per cent of control for each of these compounds:
1. NC(=O)Nc1cc(-c2cccc(F)c2)sc1C(=O)N[C@@H]1CCCNC1
2. CCN(CC)CCCCNc1ncc2c(n1)N(C)C(=O)N(c1c(Cl)c(OC)cc(OC)c1Cl)C2
3. CCN1CCN(C(=O)Cc2ccc(Nc3ncc(F)c(Nc4ccc(C(=O)Nc5ccccc5Cl)cc4)n3)cc2)CC1
4. COc1cc(C(=O)N2CCC(N3CCN(C)CC3)CC2)ccc1Nc1ncc2c(n1)N(C)c1ccccc1C(=O)N2C

Response:
1. 100
2. 100
3. 97
4. 87

Batch of 8 compounds: report kinase still bound, per cent of control for each.
1. CS(=O)(=O)N1CCN(Cc2cc3nc(-c4cccc5[nH]ncc45)nc(N4CCOCC4)c3s2)CC1
2. Cc1n[nH]c2ccc(-c3cncc(OC[C@@H](N)Cc4c[nH]c5ccccc45)c3)cc12
3. O=c1cc(N2CCOCC2)oc2c(-c3cccc4c3sc3ccccc34)cccc12
4. CNC(=O)c1cc(Oc2ccc(NC(=O)Nc3ccc(Cl)c(C(F)(F)F)c3)cc2)ccn1
5. COCC(=O)NC/C=C/c1ccc2ncnc(Nc3ccc(Oc4ccc(C)nc4)c(C)c3)c2c1
6. COc1cc2ncn(-c3cc(OCc4ccccc4C(F)(F)F)c(C(N)=O)s3)c2cc1OC
7. O=C1NC(=O)/C(=C/c2ccc3nccc(-c4ccncc4)c3c2)S1
8. COc1ccc(N(C(=O)Oc2c(C)cccc2C)c2ccnc(Nc3ccc(N4CCN(C)CC4)cc3)n2)c(OC)c1

Response:
1: 100; 2: 100; 3: 98; 4: 0.2; 5: 100; 6: 100; 7: 100; 8: 52

Give measured kinase still bound, per cent of control for every item shown.
1. CCN(CC)CCCCNc1ncc2cc(-c3cc(OC)cc(OC)c3)c(NC(=O)NC(C)(C)C)nc2n1
2. C=CC(=O)Nc1cc(-n2c(=O)ccc3cnc4ccc(-c5cn[nH]c5)cc4c32)ccc1C
3. C=CC(=O)Nc1ccc(CN(C(=O)Nc2c(Cl)c(OC)cc(OC)c2Cl)c2cc(Nc3ccc(N4CCN(C)CC4)cc3)ncn2)cc1
4. C[C@@H](Oc1cc(-c2cnn(C3CCNCC3)c2)cnc1N)c1c(Cl)ccc(F)c1Cl

Response:
1. 100
2. 97
3. 100
4. 100
